System: E. coli TESEC Mtb DapB
Assay: growth (OD600 after 10 h); higher = more growth (less inhibition)
Conditions: arabinose induction (level): Low; compound 0.1 mM; raw OD600 reference: median of DMSO wells 0.227, cell-free background 0.041
Counter-ions that a name gives are not always drawn.
# growth >= 0.2 gives condition met, anything below gives condition not met

compound: Cc1cc(C(C)(C)C)cc(C)c1CC1=NCCN1 [Xylometazoline hydrochloride]
assayed-system: E. coli TESEC Mtb DapB
class-name: condition met
--
compound: CC(=O)O[C@H]1C[C@@]2(C)[C@@H](C[C@@H](O)[C@H]3[C@@]4(C)CC[C@@H](O)[C@@H](C)[C@@H]4CC[C@@]32C)/C1=C(\CCC=C(C)C)C(=O)O [Fusidic acid sodium salt]
assayed-system: E. coli TESEC Mtb DapB
class-name: condition not met
--
compound: COc1ccccc1OCC(O)CO (stereo not drawn)
assayed-system: E. coli TESEC Mtb DapB
class-name: condition met
--
compound: Clc1ccc(CO/N=C(\Cn2ccnc2)c2ccc(Cl)cc2Cl)c(Cl)c1 [Oxiconazole Nitrate]
assayed-system: E. coli TESEC Mtb DapB
class-name: condition not met
--
compound: Clc1ccc(C(Cn2ccnc2)OCc2csc3c(Cl)cccc23)c(Cl)c1 (stereo not drawn) [Sertaconazole nitrate]
assayed-system: E. coli TESEC Mtb DapB
class-name: condition not met
--
compound: CN(C)CCN(Cc1ccc(Cl)cc1)c1ccccn1 [Chloropyramine hydrochloride]
assayed-system: E. coli TESEC Mtb DapB
class-name: condition met

----------
System: E. coli TESEC Mtb Asd
Experiment: growth (OD600 after 10 h); higher = more growth (less inhibition)
Details: arabinose induction (level): Low; compound 0.1 mM; raw OD600 reference: median of DMSO wells 0.417, cell-free background 0.041
Entries and their growth values follow.
quantity-kind: growth

compound: NS(=O)(=O)c1cc2c(cc1C(F)(F)F)NC(Cc1ccccc1)NS2(=O)=O (stereo not drawn) [Bendroflumethiazide]
value: 0.451

compound: Cc1nc(=O)c2cc(CN(C)c3ccc(C(=O)N[C@@H](CCC(=O)O)C(=O)O)s3)ccc2[nH]1 [Raltitrexed]
value: 0.422

compound: O=C(OCCOCCO)c1ccccc1Nc1cccc(C(F)(F)F)c1 [Etofenamate]
value: 0.0509

compound: CC1(C)O[C@@H]2C[C@H]3[C@@H]4C[C@H](F)C5=CC(=O)CC[C@]5(C)[C@H]4[C@@H](O)C[C@]3(C)[C@]2(C(=O)CO)O1 [Flurandrenolide]
value: 0.448

compound: COc1c(N2C[C@@H]3CCCN[C@@H]3C2)c(F)cc2c(=O)c(C(=O)O)cn(C3CC3)c12 [Moxifloxacin]
value: 0.052

compound: COC(c1ccccc1)(c1ccccc1)[C@H](Oc1nc(C)cc(C)n1)C(=O)O [Ambrisentan]
value: 0.315

compound: Cc1cccn2c(=O)c(-c3nnn[nH]3)cnc12 [Pemirolast potassium]
value: 0.371

compound: CC(=O)OCC(=O)[C@@]12OC(C)(C)O[C@@H]1C[C@H]1[C@@H]3C[C@H](F)C4=CC(=O)C=C[C@]4(C)[C@@]3(F)[C@@H](O)C[C@@]12C [Fluocinonide]
value: 0.505

----------
System: E. coli TESEC Alr+ wild-type control
Test: growth (OD600 after 10 h); higher = more growth (less inhibition)
Conditions: compound 0.1 mM; raw OD600 reference: median of DMSO wells 0.49, cell-free background 0.052
Counter-ions that a name gives are not always drawn.
Entries and their growth values follow.

molecule: Oc1c(Cl)cc(Cl)c2cccnc12 [Chloroxine]
assayed-system: E. coli TESEC Alr+ wild-type control
growth: 0.0623
--
molecule: Nc1c2ccccc2nc2ccccc12 [Aminacrine]
assayed-system: E. coli TESEC Alr+ wild-type control
growth: 0.0507
--
molecule: CC(C)(C)C(=O)OCOC(=O)[C@@H]1N2C(=O)[C@@H](NC(=O)[C@H](N)c3ccccc3)[C@H]2SC1(C)C [Pivampicillin]
assayed-system: E. coli TESEC Alr+ wild-type control
growth: 0.555
--
molecule: CCC(=O)OCC(=O)[C@@]1(OC(=O)CC)[C@@H](C)C[C@H]2[C@@H]3CCC4=CC(=O)C=C[C@]4(C)[C@@]3(Cl)[C@@H](O)C[C@@]21C [Beclomethasone dipropionate]
assayed-system: E. coli TESEC Alr+ wild-type control
growth: 0.499
--
molecule: O=C(Nc1cccc2c(=O)cc(-c3nnn[nH]3)oc12)c1ccc(OCCCCc2ccccc2)cc1 [Pranlukast]
assayed-system: E. coli TESEC Alr+ wild-type control
growth: 0.46
--
molecule: CCN(CC)CCNC(=O)c1ccc(N)cc1 [Procainamide hydrochloride]
assayed-system: E. coli TESEC Alr+ wild-type control
growth: 0.634
--
molecule: Nc1ccc(/N=N/c2ccccc2)c(N)n1 [Phenazopyridine hydrochloride]
assayed-system: E. coli TESEC Alr+ wild-type control
growth: 0.405
--
molecule: CC(C)(C)NCC(O)c1cc(O)cc(O)c1 (configuration not stated) [Terbutaline hemisulfate]
assayed-system: E. coli TESEC Alr+ wild-type control
growth: 0.504
--
molecule: C[C@@H]1NC(=O)NC1=O [Methylhydantoin-5-(L)]
assayed-system: E. coli TESEC Alr+ wild-type control
growth: 0.49
--
molecule: CN(C)c1ccc(O)c2c1C[C@H]1C[C@H]3[C@H](N(C)C)C(=O)C(C(N)=O)=C(O)[C@@]3(O)C(=O)C1=C2O [Minocycline hydrochloride]
assayed-system: E. coli TESEC Alr+ wild-type control
growth: 0.0527
--
molecule: CC[N+](CC)(CC)CCOc1cccc(OCC[N+](CC)(CC)CC)c1OCC[N+](CC)(CC)CC [Gallamine triethiodide]
assayed-system: E. coli TESEC Alr+ wild-type control
growth: 0.475
--
molecule: C[C@H](O)C(=O)Nc1c(I)c(C(=O)NC(CO)CO)c(I)c(C(=O)NC(CO)CO)c1I [Iopamidol]
assayed-system: E. coli TESEC Alr+ wild-type control
growth: 0.465
--
molecule: Nc1nc(/C(=C/CC(=O)O)C(=O)N[C@@H]2C(=O)N3C(C(=O)O)=CCS[C@H]23)cs1 [Ceftibuten]
assayed-system: E. coli TESEC Alr+ wild-type control
growth: 0.252
--
molecule: NC(=O)N/N=C/c1ccc([N+](=O)[O-])o1 [Nitrofural]
assayed-system: E. coli TESEC Alr+ wild-type control
growth: 0.0529
--
molecule: Clc1ccc(C(Cn2ccnc2)OCc2ccsc2Cl)c(Cl)c1 (configuration not stated) [Tioconazole]
assayed-system: E. coli TESEC Alr+ wild-type control
growth: 0.0501
--
molecule: CN(C(=O)CN(CCO)CC(=O)N(C)C(C)(C)Cc1ccccc1)C(C)(C)Cc1ccccc1 [Oxethazaine]
assayed-system: E. coli TESEC Alr+ wild-type control
growth: 0.0484
--
molecule: C#C[C@]1(OC(C)=O)CC[C@H]2[C@@H]3CCC4=C[C@@H](OC(C)=O)CC[C@@H]4[C@H]3CC[C@@]21C [Ethynodiol diacetate]
assayed-system: E. coli TESEC Alr+ wild-type control
growth: 0.4

----------
Entries and their growth values follow.
System: E. coli TESEC Mtb DapB
Assay: growth (OD600 after 10 h); higher = more growth (less inhibition)
Conditions: arabinose induction (level): High; compound 0.1 mM; raw OD600 reference: median of DMSO wells […], cell-free background 0.041
Counter-ions that a name gives are not always drawn.

compound: O=c1cc(-c2ccc(O)c(O)c2)oc2cc(O)cc(O)c12 [Luteolin]
growth: 0.0614
--
compound: Cn1c(=O)c2[nH]cnc2n(C)c1=O [Aminophylline]
growth: 0.226
--
compound: CCCc1cc(=O)[nH]c(=S)[nH]1 [Propylthiouracil]
growth: 0.199
--
compound: Cc1cc(-n2c(=O)[nH]c(=O)n(C)c2=O)ccc1Oc1ccc(SC(F)(F)F)cc1 [Toltrazuril]
growth: 0.227
--
compound: OC(CCN1CCCCC1)(c1ccccc1)c1ccccc1 [Pridinol methanesulfonate salt]
growth: 0.194
--
compound: NCCNCCNCCNCCN [Tetraethylenepentamine pentahydrochloride]
growth: 0.196
--
compound: CN(C/C=C/c1ccccc1)Cc1cccc2ccccc12 [Naftifine hydrochloride]
growth: 0.125
--
compound: Nc1nc(=O)c2c([nH]1)NC[C@@H](CNc1ccc(C(=O)N[C@@H](CCC(=O)O)C(=O)O)cc1)N2C=O [Folinic acid calcium salt]
growth: 0.203
--
compound: CC(=O)N(O)CCCCCNC(=O)CCC(=O)N(O)CCCCCNC(=O)CCC(=O)N(O)CCCCCN [Deferoxamine mesylate]
growth: 0.137
--
compound: CCCC1C(=O)N2C(N(C)C)=Nc3ccc(C)cc3N2C1=O (stereo not drawn) [Azapropazone]
growth: 0.185
--
compound: Cc1cc(-c2ccccc2)nnc1NCCN1CCOCC1 [Minaprine dihydrochloride]
growth: 0.185
--
compound: CCC(C)(CN(C)C)OC(=O)c1ccccc1 (stereo not drawn) [Amyleine hydrochloride]
growth: 0.195
--
compound: O=C(NCCO[N+](=O)[O-])c1cccnc1 [Nicorandil]
growth: 0.191
--
compound: CCCCNc1ccc(C(=O)OCCN(C)C)cc1
growth: 0.174
--
compound: COc1cc([S+](C)[O-])ccc1-c1nc2cccnc2[nH]1 (stereo not drawn) [Sulmazole]
growth: 0.18
--
compound: COc1cc2nc(N3CCN(C(=O)C4CCCO4)CC3)nc(N)c2cc1OC (stereo not drawn) [Terazosin hydrochloride]
growth: 0.222
--
compound: CCOC(=O)C1=C[C@]2(CC)CCCN3CCc4c(n1c1ccccc41)[C@@H]32 [Vinpocetine]
growth: 0.164
--
compound: N=C(N)NCC1COC2(CCCCC2)O1 (stereo not drawn) [Guanadrel sulfate]
growth: 0.22
--
compound: N=C(N=C(N)N)N1CCOCC1 [Moroxidine hydrochloride]
growth: 0.203
--
compound: Clc1ccc(CCC(Cn2ccnc2)Sc2c(Cl)cccc2Cl)cc1 (stereo not drawn) [Butoconazole nitrate]
growth: 0.0705
--
compound: CC(C)C[C@H](NC(=O)[C@@H](O)[C@H](N)Cc1ccccc1)C(=O)O [Ubenimex]
growth: 0.192
--
compound: CNCCc1ccccn1 [Betahistine mesylate]
growth: 0.217
--
compound: Cc1c(Nc2ncccc2C(=O)O)cccc1C(F)(F)F [Flunixin meglumine]
growth: 0.178
